experimental.target: CDK2/CycE (Homo sapiens, UniProt P24941)
assay.comment: CDK2/CycE kinase assay (TR-FRET, 2 mM ATP)
condition: 2 mM ATP (high ATP); median; read-out: CDK2/CyclinE, 2 mM ATP (high ATP), IC50 (median)
Experimental: CDK2/CycE-inhibitory activity of compounds of the present invention was quantified employing the CDK2/CycE TR-FRET assay as described in the following paragraphs. […] The resulting mixture was incubated 1 h at 22° C. to allow the formation of complex between the phosphorylated biotinylated peptide and the detection reagents. Subsequently the amount of phosphorylated substrate was evaluated by measurement of the resonance energy transfer from the Eu-chelate to the streptavidine-XL. […]
endpoint.label: IC50

Here is how some molecules turned out for IC50.
>>> df
                                   molecule  endpoint_label   result
0  Fc1ccc2[nH]c(CNc3nc(N4CCOCC4)nc4c(-c5cnn(C(F)F)c5)cnn34)nc2c1F            IC50  > 20 µM
1  CN1CCN(c2nc(NCc3nc4c(F)c(F)ccc4[nH]3)n3ncc(C4CC4(F)F)c3n2)CC1 (centres unmarked)            IC50  > 20 µM
2  Cc1ccc2[nH]c(CNc3nc(N4CCN(C)CC4)nc4c(C5CC5)cnn34)nc2c1            IC50  > 20 µM
3  CN1CCN(c2nc(NCc3nc4ccccc4[nH]3)n3ncc(Br)c3n2)CC1            IC50  6.29 µM
4  FC(F)(F)c1ccccc1-c1cnc(CNc2nc(N3CCOCC3)nc3c(Br)cnn23)[nH]1            IC50  8.55 µM
5  CN1CC2CCC(C1)N2c1nc(NCc2nc3ccccc3[nH]2)n2ncc(Br)c2n1            IC50  > 20 µM
6  CC(C)c1cnn2c(NCc3ncc(-c4ccccc4)[nH]3)nc(N(C)CC(C)(C)O)nc12            IC50   1.7 µM

stdin: Kindly state the measured IC50 obtained for C[C@H]1CN(C)CCN1c1nc(NCc2nc3c(F)cccc3[nH]2)n2ncc(C(F)(F)F)c2n1 with CDK2/CycE (Homo sapiens, UniProt P24941).
stdout: > 20 µM

* * *

experimental.target: CDK9/CycT1 (Homo sapiens)
Construct: Recombinant full-length His-tagged human CDK9 and CycT1; purchased Life Technologies PV4131; host or cells: insect cells
Sequence (P50750 whole entry): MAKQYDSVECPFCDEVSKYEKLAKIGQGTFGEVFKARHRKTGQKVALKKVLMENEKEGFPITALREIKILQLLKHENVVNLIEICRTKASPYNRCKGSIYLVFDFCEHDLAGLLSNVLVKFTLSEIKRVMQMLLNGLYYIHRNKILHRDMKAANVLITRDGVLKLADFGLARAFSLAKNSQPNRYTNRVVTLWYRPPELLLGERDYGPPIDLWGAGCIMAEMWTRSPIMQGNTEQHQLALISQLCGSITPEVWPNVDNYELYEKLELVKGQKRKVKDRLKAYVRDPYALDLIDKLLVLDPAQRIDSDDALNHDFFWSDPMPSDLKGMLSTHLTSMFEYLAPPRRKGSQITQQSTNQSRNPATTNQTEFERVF
Sequence (O60563 whole entry partner): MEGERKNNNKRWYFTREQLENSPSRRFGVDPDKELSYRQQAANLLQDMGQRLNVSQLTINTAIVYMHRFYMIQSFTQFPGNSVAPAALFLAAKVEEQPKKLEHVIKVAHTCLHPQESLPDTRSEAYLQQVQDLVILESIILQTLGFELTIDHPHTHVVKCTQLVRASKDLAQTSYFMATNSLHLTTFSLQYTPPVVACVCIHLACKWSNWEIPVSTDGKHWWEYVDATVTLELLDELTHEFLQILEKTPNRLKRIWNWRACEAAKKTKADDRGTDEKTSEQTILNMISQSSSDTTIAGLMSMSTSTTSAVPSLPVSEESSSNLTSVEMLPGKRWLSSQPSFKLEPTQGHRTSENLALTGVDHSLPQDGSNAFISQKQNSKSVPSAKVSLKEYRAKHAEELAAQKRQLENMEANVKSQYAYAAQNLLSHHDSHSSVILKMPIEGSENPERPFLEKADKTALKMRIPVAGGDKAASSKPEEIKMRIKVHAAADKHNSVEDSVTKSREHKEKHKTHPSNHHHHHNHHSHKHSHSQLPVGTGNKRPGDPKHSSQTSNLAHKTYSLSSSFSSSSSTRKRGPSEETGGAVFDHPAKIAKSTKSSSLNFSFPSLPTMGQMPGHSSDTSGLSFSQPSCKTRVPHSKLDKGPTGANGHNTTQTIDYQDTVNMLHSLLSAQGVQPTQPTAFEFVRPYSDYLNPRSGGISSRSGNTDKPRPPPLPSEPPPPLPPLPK
assay.comment: CDK9/CycT1 high ATP kinase assay (TR-FRET, 2 mM ATP)
Assay type: biochemical
condition: 2 mM ATP (high ATP); median; read-out: CDK9/CyclinT1, 2 mM ATP (high ATP), IC50 (median)
Known IC50 of a selection of compounds

Here is how some compounds turned out for IC50.
                           substance_smiles     result
0  Cc1cnn2c(NCc3nc4ccccc4[nH]3)nc(N3CC4CCC(C3)N4)nc12    > 20 µM
1  COc1ccccc1-c1nnc(CNc2nc(N3CCOCC3)nc3c(Br)cnn23)[nH]1    > 20 µM
2  Fc1ccccc1-c1nnc(CNc2nc(N3CCOCC3)nc3c(Br)cnn23)[nH]1  > 6.15 µM

stdin: Consider the compound shown here: CC(C)c1cnn2c(NCc3nc4ccccc4[nH]3)nc(N3CCOC(C)(C)C3)nc12 What is its recorded IC50?
stdout: > 20 µM
